Tested system: ZFP SBS#786 (synthetic)
Sequence (chain, as listed by the source): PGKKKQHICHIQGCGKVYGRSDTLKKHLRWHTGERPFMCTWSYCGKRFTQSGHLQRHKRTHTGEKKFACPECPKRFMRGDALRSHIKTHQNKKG
Method notes: EMSA
Measurement context: tags: MBP fusion
Observable: Kd

Please supply the value of reported Kd for the item TTGGGAGCGG (dsDNA) DNA 1: TTGGGAGCGG DNA 2: CCGCTCCCAA
2000 nM
